Molecular target: Tyrosine-protein kinase Yes (Homo sapiens)
Experiment: qHTS for small molecule inhibitors of Yes1 kinase: Primary Screen (AID 686947); note: nearly all actives have a fitted effect of over 60% in size; note: potency is the fitted concentration of half-maximal effect
Conditions: Yes1 kinase biochemical qHTS inhibition; series mostly up to 76.9 µM
Inconclusive results are not listed. Calls of active or inactive are those of the source. Calls come from the whole dose curve; as a rule, active = well fitted inhibition curve with a large enough effect; inconclusive = small, poorly fitted or top-dose-only effect; inactive = no such curve, though single readings can be large or run the other way.
MEASUREMENT_NAME: Potency

{"COMPOUND": "COc1cc(Nc2nccc(Nc3ccc4c(C)[nH]nc4c3)n2)cc(OC)c1OC", "EXPERIMENTAL_SYSTEM": "Tyrosine-protein kinase Yes (Homo sapiens)", "RESULT": "0.0923 µM (active)"}
{"COMPOUND": "COC(=O)c1cncc(C=Cc2c(C)cc(O)cc2C)c1", "EXPERIMENTAL_SYSTEM": "Tyrosine-protein kinase Yes (Homo sapiens)", "RESULT": "1.3 µM (active)"}
{"COMPOUND": "NS(=O)(=O)c1ccc(N=Nc2c(O)[nH]c3cccc(CCc4ccncc4)c23)cc1", "EXPERIMENTAL_SYSTEM": "Tyrosine-protein kinase Yes (Homo sapiens)", "RESULT": "inactive"}
{"COMPOUND": "O=C(OC1CNC(C#Cc2cc3ncnc(Nc4ccc5c(ccn5Cc5cc(F)ccc5F)c4)c3s2)C1)N1CCOCC1 (centres undefined)", "EXPERIMENTAL_SYSTEM": "Tyrosine-protein kinase Yes (Homo sapiens)", "RESULT": "29.2 µM (active)"}
{"COMPOUND": "COC(=O)Nc1nc2ccc(Oc3cccc(NC(=O)Nc4cc(C(F)(F)F)ccc4F)c3)cc2[nH]1", "EXPERIMENTAL_SYSTEM": "Tyrosine-protein kinase Yes (Homo sapiens)", "RESULT": "11.6 µM (active)"}
{"COMPOUND": "CS(=O)(=O)CCN(CC#N)Cc1ccc(-c2ccc3ncnc(Nc4ccc(OCc5cccc(F)c5)c(Cl)c4)c3c2)o1", "EXPERIMENTAL_SYSTEM": "Tyrosine-protein kinase Yes (Homo sapiens)", "RESULT": "inactive"}
{"COMPOUND": "COc1cc(Nc2ncc(-c3ccccc3)o2)cc(OC)c1OC", "EXPERIMENTAL_SYSTEM": "Tyrosine-protein kinase Yes (Homo sapiens)", "RESULT": "0.328 µM (active)"}
{"COMPOUND": "CS(=O)(=O)CCNCc1nc(-c2ccc3ncnc(Nc4ccc(F)c(Cl)c4)c3c2)cs1", "EXPERIMENTAL_SYSTEM": "Tyrosine-protein kinase Yes (Homo sapiens)", "RESULT": "4.63 µM (active)"}
{"COMPOUND": "NS(=O)(=O)c1ccc(N=Nc2c(O)[nH]c3ccc(C(=O)NCc4ccncc4)cc23)cc1", "EXPERIMENTAL_SYSTEM": "Tyrosine-protein kinase Yes (Homo sapiens)", "RESULT": "4.63 µM (active)"}
